Target: T1, FOXP2 FHD-END (UniProt O15409 504-715)
T1 sequence: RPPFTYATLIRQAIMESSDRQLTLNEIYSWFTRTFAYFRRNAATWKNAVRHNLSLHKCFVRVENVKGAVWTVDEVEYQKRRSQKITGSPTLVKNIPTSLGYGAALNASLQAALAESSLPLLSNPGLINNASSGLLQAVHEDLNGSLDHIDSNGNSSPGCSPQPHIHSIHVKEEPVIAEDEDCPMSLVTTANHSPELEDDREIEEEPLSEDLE
Assay: fluorescence anisotropy; FA: 10 mM HEPES pH 7.5, 100 mM NaCl, 0.02% NaN3, 500 nM DNA, temperature not stated; EMSA: 10 mM HEPES pH 7.5, 1 mM MgCl2, 100 mM KCl, 10% glycerol, 0.1 mg/ml BSA, 500 nM DNA, on ice, gel at 4 C
Details: protein: recombinant; (purified by nickel IMAC); chain copies: 2; blunt
Quantity: pKd
pKd (log units): -log10 of the concentration in mol/L.

Ask: Request the reported pKd associated with FOXP2 cognate DNA, ROX-labelled (dsDNA) DNA 1: TTAGGTGTTTACTTTCATAG DNA 2: CTATGAAAGTAAACACCTAA
Reply: 5.72
